Test system: Malme-3M
Test: NCI tumour cell line growth inhibition, 48 h
Activity calls are given as the source filed them. No stated cut-off is given here; in the data, active = GI50 up to about 1.1 µM and inactive = higher. Square brackets hold non-standard residues; d marks the D form. Peptide text beside a SMILES is read from it. * marks the point of attachment. ξ: configuration not given here. ξD = NC(CC(=O)O)C(=O)O; Ac3c = NC1(C(=O)O)CC1; Boc = CC(C)(C)OC(=O)*; OtBu = CC(C)(C)O*
The reply should name one outcome from y (active), n (inactive)

Some entries whose results are on file:
# compound, assigned.category
records = [
    ("COc1cc(O)c2c(=O)cc(C3(OC(C)=O)C=CC(OC4OC(CO)C(O)C(O)C4O)C=C3)oc2c1 (centres undefined)", "n"),
    ("Cc1cc2nc3c(C#N)c4c(c(Nc5ccc(F)cc5)n3c2cc1C)CCC4", "n"),
    ("CCOC(=O)c1cc(C)n(CN(CCO)Cn2nc(C(=O)OCC)cc2C)n1", "n"),
]

Query compound follows.
Req: Test call for this compound, please: COC(=O)C1(NC(=O)C(CC(=O)OC(C)(C)C)NC(=O)OC(C)(C)C)CC1 (centres undefined) (Boc-[ξD](OtBu)-[Ac3c]-OMe)
Resp: n

---

Collected GI50 values appear next to each entry.
System: A498
Test: NCI tumour cell line growth inhibition, 48 h
Active and inactive are the calls of the source. Rule as the data show it: active = GI50 up to about 1.1 µM and inactive = higher.

Reference set (4 entries):
# compound, GI50
records = [
    ("C=C(c1ccccc1)C1(O)CCCCC1N (stereo not given)", "> 100 µM (inactive)"),
    ("COc1ccc2oc(=O)c(-c3nc4ccccc4s3)cc2c1", "20.8 µM (inactive)"),
    ("O=C(NC(CO)Cc1ccc(Oc2cc(CC(CO)NC(=O)OCc3ccccc3)ccc2OC(=O)OCc2ccccc2)cc1)OCc1ccccc1 (stereo not given)", "14.7 µM (inactive)"),
    ("NCCn1cnc2nc(NC(=O)c3ccccc3)[nH]c(=O)c21", "> 100 µM (inactive)"),
]

Per the reported A498 data, Cc1ncc([N+](=O)[O-])n1CCN(C)C(=O)CCCn1ccnc1[N+](=O)[O-] has GI50 of > 100 µM (inactive)

---

Test system: U-251
Assay: NCI tumour cell line growth inhibition, 48 h
Activity calls are given as the source filed them. No stated cut-off is given here; in the data, active = GI50 up to about 1.1 µM and inactive = higher.
The reply should name one outcome from TRUE (active), FALSE (inactive)

Req: Test call for this molecule, please: C/C(=N\NC(N)=O)c1sc(-c2nc(C)c(/C(C)=N/NC(N)=O)s2)nc1C
Resp: FALSE

Req: Test call for this molecule, please: Nc1ccnc2c1ncn2[C@H]1C[C@H](O)[C@@H](CO)O1
Resp: FALSE

Req: Test call for this molecule, please: CCOC(=O)c1c(O)nc(O)c(CC)c1C
Resp: FALSE

---

Collected GI50 values appear next to each entry.
Test system: TK-10
Assay: NCI tumour cell line growth inhibition, 48 h
Active and inactive are the calls of the source. No stated cut-off is given here; in the data, active = GI50 up to about 1.1 µM and inactive = higher.

Reference set (2 entries):
# molecule, target.system, measured.quantity, assay.value
records = [
    ("O=C1C=CC(=O)C2=C1[C@@H](O)C1CC=CC3C(=O)O[C@@H]2C31 (stereo not given in full)", "TK-10", "GI50", "28.2 µM (inactive)"),
    ("COc1cccc(C2C(C(=O)O)=C(CO)Oc3cc4c(cc32)OCO4)c1 (stereo not given)", "TK-10", "GI50", "> 100 µM (inactive)"),
]

Per the reported TK-10 data, NC1C2C(CC(=O)O)OCC=C3CN4CCC1(C(=O)C(=O)O)C4CC32 (stereo not given) has GI50 of > 100 µM (inactive)

Per the reported TK-10 data, CCOP(=O)(OCC)C1CC(n2cc(C)c(=O)[nH]c2=O)OC1CO (stereo not given) has GI50 of > 100 µM (inactive)

Per the reported TK-10 data, O=C(c1ccco1)C1CC(c2ccc3ccccc3c2O)=NN1c1ccc([N+](=O)[O-])cc1[N+](=O)[O-] (stereo not given) has GI50 of 30 µM (inactive)

---

Tested on: CAKI-1
Assay: NCI tumour cell line growth inhibition, 48 h
Activity calls are given as the source filed them. Cut-off read from the data, not from the text of the source: active = GI50 up to about 1.1 µM and inactive = higher.
The reply should name one outcome from class 1 for active, class 0 for inactive

Some entries whose results are on file:
# compound, assigned.category
data = [
    ("NC(=S)N/N=C\\CC(O)(C(F)(F)F)C(F)(F)F", "class 0"),
    ("OC(c1ccc(C(F)(F)F)cc1)C(F)(F)c1nc2ccccc2o1 (centres undefined)", "class 0"),
    ("Cc1ccc(S(=O)(=O)n2cncc2CO)cc1", "class 0"),
    ("CN1C(=O)CC2(C)c3cc(O)ccc3N(C)C12 (centres undefined)", "class 0"),
]

Req: Test call for this compound, please: O[C@H]1[C@H](O)[C@@H](Cn2nnc(-c3ccccc3)c2-c2ccccc2)OCO[C@@H]1Cn1nnc(-c2ccccc2)c1-c1ccccc1
Resp: class 0

Req: Test call for this compound, please: COC(=O)c1ccccc1C1CN=NC12Cc1cc(C)c(C)cc1C2=O (centres undefined)
Resp: class 0

Req: Test call for this compound, please: COc1ccc(-n2cnc3c2=NC(C)(C)NC=3C(N)=O)c(OC)c1
Resp: class 0

Req: Test call for this compound, please: CC(CCC(=O)O)c1ccc(Br)cc1 (centres undefined)
Resp: class 0

Req: Test call for this compound, please: Clc1ccc2c(NCCCCCCNc3ccnc4cc(Cl)ccc34)ccnc2c1
Resp: class 0

Req: Test call for this compound, please: Nc1ccnc2c1ncn2[C@H]1C[C@H](O)[C@@H](CO)O1
Resp: class 0

Req: Test call for this compound, please: O=S(=O)(O)c1ccc(/N=N/c2ccc3c(S(=O)(=O)O)cccc3c2O)c2ccccc12
Resp: class 0

Req: Test call for this compound, please: Cc1ccc(S(=O)(=O)c2ccc(N)cc2)cc1
Resp: class 0

Req: Test call for this compound, please: CC(=O)N(C)c1ccc(/N=C/N(C)C)cc1
Resp: class 0

Req: Test call for this compound, please: CC(C)(C)C(=O)Nc1cccc(-c2ccc[nH]2)n1
Resp: class 0

Req: Test call for this compound, please: CCCCNC1=C2C(=O)NN=C2CO1
Resp: class 0

Req: Test call for this compound, please: CC(C)(C)OC(=O)NCC(=O)OCc1ccccc1
Resp: class 0

Req: Test call for this compound, please: O=C1NC(N2CCCC(CO)C2)=N/C1=C\c1ccc(Cl)cc1 (centres undefined)
Resp: class 0

Req: Test call for this compound, please: CCN(CCCl)CCCCNc1c2ccccc2nc2ccc(OC)cc12
Resp: class 1

---

Tested on: SK-OV-3
Test: NCI tumour cell line growth inhibition, 48 h
Calls of active or inactive are those of the source. Cut-off read from the data, not from the text of the source: active = GI50 up to about 1.1 µM and inactive = higher. Square brackets hold non-standard residues; d marks the D form. Peptide text beside a SMILES is read from it. * marks the point of attachment. ξ: configuration not given here. ξD = NC(CC(=O)O)C(=O)O; Ac3c = NC1(C(=O)O)CC1; Boc = CC(C)(C)OC(=O)*; OtBu = CC(C)(C)O*
The reply should name one outcome from 1 (yes) (active), 0 (no) (inactive)

Some entries whose results are on file:
# compound, target.system, assigned.category
records = [
    ("CCC(C)C1NC(=O)C(NC(=O)C(CC(C)C)N(C)C(=O)[C@@H]2C=CCN2C(=O)[C@H](C)O)C(C)OC(=O)[C@H](Cc2ccc(OC)cc2)N(C)C(=O)[C@@H]2CCCN2C(=O)[C@H](CC(C)C)NC(=O)C(C)C(=O)[C@H](C(C)C)OC(=O)CC1O (some centres undefined)", "SK-OV-3", "1 (yes)"),
    ("Nc1cc2[nH]cnc2c(=O)[nH]1 [DEZAGUANINE]", "SK-OV-3", "0 (no)"),
    ("O=C(O)CCC1(Br)CCCCC(Br)C1=O (centres undefined)", "SK-OV-3", "0 (no)"),
]

Req: Test call for this compound, please: O=C(CCCn1ccnc1[N+](=O)[O-])NCCn1cnc([N+](=O)[O-])c1
Resp: 0 (no)

Req: Test call for this compound, please: NC(Cc1ccccc1)c1nccs1 (centres undefined)
Resp: 0 (no)

Req: Test call for this compound, please: COC(=O)C1(NC(=O)C(CC(=O)OC(C)(C)C)NC(=O)OC(C)(C)C)CC1 (centres undefined) (Boc-[ξD](OtBu)-[Ac3c]-OMe)
Resp: 0 (no)

Req: Test call for this compound, please: O=C(/C=C/c1ccc(O)c(O)c1)OCCCOC(=O)/C=C/c1ccc(O)c(O)c1
Resp: 0 (no)

Req: Test call for this compound, please: NC(=S)N1N=C2c3ccccc3CC[C@H]2[C@@H]1c1cccs1
Resp: 0 (no)

Req: Test call for this compound, please: Nc1nnc(CCC(=O)Nc2cc(Cl)ccc2Cl)n1N
Resp: 0 (no)

---

Tested on: MDA-MB-231
Test: NCI tumour cell line growth inhibition, 48 h
The source made the active and inactive calls. Cut-off read from the data, not from the text of the source: active = GI50 up to about 1.1 µM and inactive = higher.
Collected GI50 values appear next to each entry.

# molecule, assay.value
records = [
    ("Clc1cc(C(c2cc(Cl)sc2Cl)c2cc(Cl)sc2Cl)c(Cl)s1", "> 100 µM (inactive)"),
    ("O=C1NC(=S)N(c2cccc3ccccc23)C(=O)/C1=C/c1c[nH]c2ccccc12", "2.16 µM (inactive)"),
    ("Cn1c(-c2ccc(-c3cc(-c4cccs4)c(-c4cccs4)n3C)cc2)cc(-c2cccs2)c1-c1cccs1", "> 100 µM (inactive)"),
    ("CC(=O)N(C(C)=O)n1nc2c(n1)C(=O)c1ccccc1C2=O", "> 100 µM (inactive)"),
]

Turning to the following molecule.
Per the reported MDA-MB-231 data, COC(CC1(/C=C/O[Si](C(C)C)(C(C)C)C(C)C)C(=O)N(C)c2ccccc21)OC (stereo not given) has GI50 of > 100 µM (inactive)
